molecular target: Cholinesterase (Equus caballus, UniProt P81908); experiment: Inhibition of equine serum BuChE using butyrylthiocholine iodide as substrate pretreated for 10 mins followed by substrate addition by DTNB reagent based spectrophotometric method
Sequence (P81908 whole entry): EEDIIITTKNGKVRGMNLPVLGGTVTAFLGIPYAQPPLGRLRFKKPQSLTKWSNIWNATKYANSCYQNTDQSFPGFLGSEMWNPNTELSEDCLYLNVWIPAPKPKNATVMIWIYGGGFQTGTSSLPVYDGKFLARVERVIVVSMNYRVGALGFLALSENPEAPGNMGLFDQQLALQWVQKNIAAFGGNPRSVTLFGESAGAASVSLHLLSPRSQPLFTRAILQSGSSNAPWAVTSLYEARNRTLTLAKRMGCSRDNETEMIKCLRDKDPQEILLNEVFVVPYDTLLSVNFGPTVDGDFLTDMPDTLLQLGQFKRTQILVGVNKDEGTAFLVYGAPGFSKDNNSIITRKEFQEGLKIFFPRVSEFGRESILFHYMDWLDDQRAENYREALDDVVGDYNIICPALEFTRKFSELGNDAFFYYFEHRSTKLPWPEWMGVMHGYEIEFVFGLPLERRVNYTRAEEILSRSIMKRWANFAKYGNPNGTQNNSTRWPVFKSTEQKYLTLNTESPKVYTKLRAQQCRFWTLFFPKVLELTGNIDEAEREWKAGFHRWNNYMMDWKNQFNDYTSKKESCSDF
measured.parameter: pIC50
Note on pIC50: it is the negative log10 of concentration, concentration in mol/L.

query: Suppose we examine the molecule CCN1CCc2c(c3cc(F)ccc3n2CCC(=O)N2c3ccccc3Sc3ccccc32)C1 ; what pIC50 value has been reported?
result: 6.41

----------
target: Cholinesterase (Equus caballus, UniProt P81908); assay: Inhibition of equine serum BChE using butyrylthiocholine iodide as substrate
Assignment: determine reported pIC50 for the given molecules.
Reminder that pIC50 means the negative base-10 logarithm of the concentration expressed in mol/L.

query: Suppose we examine the molecule c1ccc2c(SCCCCCCCSc3c4c(nc5ccccc35)CCCC4)c3c(nc2c1)CCCC3 ; what pIC50 value has been reported?
result: 6.42

query: Repeat with CC(=O)N(CCCNc1c2c(nc3ccccc13)CCCC2)CCNc1c2c(nc3ccccc13)CCCC2
result: 8.70

query: Also need c1ccc2c(NCCCCCCCSc3c4c(nc5ccccc35)CCCC4)c3c(nc2c1)CCCC3 , thanks.
result: 7.46

----------
target: Cholinesterase (Homo sapiens, UniProt P06276); assay: Inhibition of BuChE (unknown origin)
Sequence (P06276 whole entry): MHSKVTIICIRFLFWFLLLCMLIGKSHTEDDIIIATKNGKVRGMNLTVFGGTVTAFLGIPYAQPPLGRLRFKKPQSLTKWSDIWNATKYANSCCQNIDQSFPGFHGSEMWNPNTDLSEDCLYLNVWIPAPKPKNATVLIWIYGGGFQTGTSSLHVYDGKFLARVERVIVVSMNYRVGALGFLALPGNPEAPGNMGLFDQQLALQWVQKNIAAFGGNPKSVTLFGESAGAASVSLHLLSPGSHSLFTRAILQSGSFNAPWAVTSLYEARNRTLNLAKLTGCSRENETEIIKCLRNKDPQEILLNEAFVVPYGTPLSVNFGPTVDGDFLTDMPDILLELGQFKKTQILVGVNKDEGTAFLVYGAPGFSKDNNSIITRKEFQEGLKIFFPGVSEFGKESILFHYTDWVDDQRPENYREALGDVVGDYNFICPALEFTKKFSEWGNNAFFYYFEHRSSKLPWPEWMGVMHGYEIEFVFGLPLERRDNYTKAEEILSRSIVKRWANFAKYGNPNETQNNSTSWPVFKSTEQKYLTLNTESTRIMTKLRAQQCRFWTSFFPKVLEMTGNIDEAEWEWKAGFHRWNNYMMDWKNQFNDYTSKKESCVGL
measured.parameter: IC50 (µM)
Please respond with the number in µM and leave the unit unwritten.

query: Report IC50 for Oc1ccc(-c2cnc3ccccc3n2)cc1 please.
result: 7.7

----------
assay: Cytotoxicity against human T67 cells assessed as cell viability at 10 uM after 24 hrs by resazurin dye based spectrofluorimetric method relative to control; settings: read-out: Activity
measured.parameter: viability at 24 h, 10 µM

query: State the recorded viability at 24 h, 10 µM for this entry: COc1ccccc1CN1CCN(Cc2ccc3cccnc3c2O)CC1
result: > 90%

----------
Can you tell me pIC50 for the items I'm about to list?
molecular target: Acetylcholinesterase (Bos taurus); assay: Inhibition of fetal bovine serum AChE using acetylthiocholine iodide as substrate
Sequence (P23795 whole entry): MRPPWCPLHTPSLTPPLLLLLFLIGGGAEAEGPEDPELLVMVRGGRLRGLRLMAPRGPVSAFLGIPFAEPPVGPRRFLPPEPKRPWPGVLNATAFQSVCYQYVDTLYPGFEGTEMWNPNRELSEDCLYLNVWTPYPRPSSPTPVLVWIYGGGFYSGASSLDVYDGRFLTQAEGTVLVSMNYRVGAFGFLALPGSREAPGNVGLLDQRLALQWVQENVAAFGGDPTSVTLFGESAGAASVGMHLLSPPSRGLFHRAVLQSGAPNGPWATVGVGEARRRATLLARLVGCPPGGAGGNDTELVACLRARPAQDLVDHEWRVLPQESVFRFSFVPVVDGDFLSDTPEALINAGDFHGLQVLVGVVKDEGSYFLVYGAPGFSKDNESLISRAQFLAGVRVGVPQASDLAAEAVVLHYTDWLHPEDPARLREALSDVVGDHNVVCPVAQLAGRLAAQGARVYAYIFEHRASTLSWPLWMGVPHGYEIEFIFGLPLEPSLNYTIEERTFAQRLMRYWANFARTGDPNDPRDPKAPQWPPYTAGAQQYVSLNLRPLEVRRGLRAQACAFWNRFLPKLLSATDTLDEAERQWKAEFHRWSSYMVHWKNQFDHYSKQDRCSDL
When answering, recall that pIC50 equals minus log10 of the concentration in mol/L, and write that number alone.

query: Short answer please: pIC50, Acetylcholinesterase (Bos taurus), entry CC(=O)N(CCCNc1c2c(nc3ccccc13)CCCC2)CCNc1c2c(nc3ccccc13)CCCC2
result: 5.82

query: Can you handle c1ccc2c(NCCCCCCCSc3c4c(nc5ccccc35)CCCC4)c3c(nc2c1)CCCC3 next?
result: 6.47

----------
molecular target: Acetylcholinesterase (Electrophorus electricus, UniProt O42275); test: Inhibition of electric eel AChE using acetylthiocholine iodide as substrate measured at 12 secs interval for 10 mins by Ellman's method
Sequence (O42275 whole entry): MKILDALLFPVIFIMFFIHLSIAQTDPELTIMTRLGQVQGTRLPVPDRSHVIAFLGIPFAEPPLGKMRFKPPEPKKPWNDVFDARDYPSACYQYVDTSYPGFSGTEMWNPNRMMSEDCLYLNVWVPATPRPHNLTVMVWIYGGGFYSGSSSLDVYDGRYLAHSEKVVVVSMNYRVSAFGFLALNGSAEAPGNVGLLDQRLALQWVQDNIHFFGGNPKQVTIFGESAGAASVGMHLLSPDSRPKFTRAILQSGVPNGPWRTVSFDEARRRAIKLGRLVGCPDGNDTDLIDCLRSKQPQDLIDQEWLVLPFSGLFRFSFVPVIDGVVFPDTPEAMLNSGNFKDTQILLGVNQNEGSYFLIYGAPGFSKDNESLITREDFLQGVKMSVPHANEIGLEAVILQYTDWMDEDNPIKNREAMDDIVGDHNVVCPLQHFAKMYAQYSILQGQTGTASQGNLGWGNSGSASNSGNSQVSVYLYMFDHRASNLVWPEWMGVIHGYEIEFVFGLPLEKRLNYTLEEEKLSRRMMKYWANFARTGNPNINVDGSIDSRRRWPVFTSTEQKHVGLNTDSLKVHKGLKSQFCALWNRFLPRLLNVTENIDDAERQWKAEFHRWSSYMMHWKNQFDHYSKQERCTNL
measured.parameter: IC50 (µM)
Numbers only; they are read as µM.

query: Item under review: Oc1ccccc1/C=C/c1cc(O)c(F)c(O)c1 . Reported IC50?
result: 960

----------
experiment: Cytotoxicity against human T67 cells assessed as cell viability at 50 uM after 24 hrs by resazurin dye based spectrofluorimetric method relative to control; settings: read-out: Activity
measured.parameter: viability at 24 h, 50 µM
Kindly report the value followed by its unit.

query: Item COc1ccccc1CN1CCN(Cc2ccc3cccnc3c2O)CC1 has what recorded viability at 24 h, 50 µM?
result: 81%

----------
biological target: Acetylcholinesterase (Homo sapiens); assay: Inhibition of human […] AChE using acetyl-(beta-methyl)thiocholine as substrate pretreated for 30 mins followed by substrate addition after 25 mins by spectrophotometric method
Sequence (P22303 whole entry): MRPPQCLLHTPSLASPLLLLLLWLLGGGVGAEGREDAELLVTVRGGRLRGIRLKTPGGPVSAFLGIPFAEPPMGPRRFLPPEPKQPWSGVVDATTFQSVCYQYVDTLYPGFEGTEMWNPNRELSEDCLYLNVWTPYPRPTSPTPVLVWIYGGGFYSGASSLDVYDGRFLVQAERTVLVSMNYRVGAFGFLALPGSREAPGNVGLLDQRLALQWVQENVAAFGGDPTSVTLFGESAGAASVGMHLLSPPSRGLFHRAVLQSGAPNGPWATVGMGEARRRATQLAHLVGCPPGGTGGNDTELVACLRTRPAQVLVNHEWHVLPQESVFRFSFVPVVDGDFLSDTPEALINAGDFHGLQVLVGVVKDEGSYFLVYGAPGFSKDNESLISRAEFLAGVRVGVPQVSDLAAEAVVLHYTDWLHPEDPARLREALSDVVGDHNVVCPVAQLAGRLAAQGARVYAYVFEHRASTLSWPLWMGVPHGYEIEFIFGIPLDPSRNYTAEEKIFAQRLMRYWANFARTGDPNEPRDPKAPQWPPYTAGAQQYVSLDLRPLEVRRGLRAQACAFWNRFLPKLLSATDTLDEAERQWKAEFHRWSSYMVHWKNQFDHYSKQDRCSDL
measured.parameter: IC50 (nM)
# output: bare number, implied unit nM

query: Recorded IC50 of CC(C)c1ccc(NC(=O)Oc2ccc3c(c2)[C@]2(C)CCC(C)[C@@H]2C3C)cc1 (stereo partly specified) , please.
result: 760

----------
biological target: UniProt:P06276; assay: Inhibition of human BuChE
measured.parameter: pIC50
In simple prose, pIC50 is minus the logarithm base ten of a concentration in moles per litre.

query: Entry COc1ccc(Cn2cc(CNc3c4c(nc5ccccc35)CCCC4)nn2)cc1 has what pIC50?
result: 7.26

----------
molecular target: UniProt:P06276; assay: Inhibition of human […] BuChE using s-butyrylthiocholine as substrate pretreated for 30 mins followed by substrate addition after 25 mins by spectrophotometric method
measured.parameter: pIC50
Please note pIC50 is a logarithmic value: minus log10 of concentration in mol/L. Answer with that number alone.

query: Item under review: CC(C)c1ccc(NC(=O)Oc2ccc3c(c2)[C@]2(C)CCC(C)[C@@H]2C3C)cc1 (stereo partly specified) . Reported pIC50?
result: 7.30

----------
experiment: Cytotoxicity against human SH-SY5Y cells assessed as cell viability at 25 uM after 24 hrs by MTT assay relative to control; type: cell-based; settings: read-out: Activity
measured.parameter: viability at 24 h, 25 µM (%)
Give the value, in units of %, as a plain number.

query: May I ask what viability at 24 h, 25 µM has been recorded for COc1ccc(CNc2c3c(nc4ccccc24)CCCC3)cc1OC ?
result: 58.9

----------
biological target: Cholinesterase (Equus caballus, UniProt P81908); test: Inhibition of equine serum BuChE using s-butyrylthiocholine iodide as substrate pretreated for 6 mins followed by substrate addition measured at 60 secs interval for 180 secs by Ellman's method
measured.parameter: pIC50
In simple prose, pIC50 is minus the logarithm base ten of a concentration in moles per litre.

query: Name the reported pIC50 value associated with the compound O=C(NCCCCCCNc1c2c(nc3ccccc13)CCCCC2)c1cc(O)c2c(c1)C(=O)c1cccc(O)c1C2=O
result: 7.96

----------
molecular target: Cholinesterase (Homo sapiens, UniProt P06276); test: Inhibition of human serum BuChE using butyrylthiocholine iodide as substrate pretreated for 20 mins followed by substrate addition by DTNB reagent based spectrophotometric method
measured.parameter: IC50
The reply should consist of the numeric value with the unit placed after it.

query: What value of measured IC50 is listed for COc1ccccc1CN1CCN(Cc2ccc3cccnc3c2O)CC1 ?
result: 5.71 µM
